I'd appreciate it if you could supply inhibition values for the items below.
system under test: Enoyl-[acyl-carrier-protein] reductase [NADPH] FabI (Staphylococcus aureus) (UniProt Q6GI75)
Sequence (Q6GI75 whole entry): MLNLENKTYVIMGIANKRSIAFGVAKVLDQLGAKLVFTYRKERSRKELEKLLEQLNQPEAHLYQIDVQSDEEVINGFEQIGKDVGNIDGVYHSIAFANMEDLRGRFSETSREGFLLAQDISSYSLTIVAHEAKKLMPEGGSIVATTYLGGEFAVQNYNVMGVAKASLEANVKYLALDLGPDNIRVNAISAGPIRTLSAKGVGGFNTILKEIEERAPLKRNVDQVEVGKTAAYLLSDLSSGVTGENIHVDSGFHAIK
experimental details: Inhibition of N-terminal his 6 tagged Staphylococcus aureus Fabi (1 to […] residues) expressed in Escherichia coli BL21 at 1 uM incubated for 30 mins in presence of NADPH by fluorescence based microplate reader analysis relative to control
Give bare numbers, in %.

Worked examples, 3 compounds total:
# compound, measurement type, readout units, measured value
records = [
    ("Cn1c(C(=O)NCc2ccccc2)nc2ccccc21", "inhibition", "%", 6.2),
    ("COc1ccc(N2CC(c3nc4ccccc4n3C)CC2=O)cc1OC (centres undefined)", "inhibition", "%", 1.6),
    ("Cc1c(Cl)cccc1N1CC(c2nc3ccccc3n2C)CC1=O (centres undefined)", "inhibition", "%", 76.8),
]

Okay, next one:
// Cc1c(O)cccc1N1CC(c2nc3ccccc3n2C)CC1=O (centres undefined) : inhibition value = 61.7
